# key: entry, value: % RELAXATION
test system: aortic rings precontracted by phenylephrine; experiment: relaxant effect on aortic rings precontracted by phenylephrine; parameters: species or system spontaneously hypertensive rats; conditions: 100 micro-molar each component, final concentration in organ chamber; SHR aortic rings precontracted by phenylephrine (1 micromolar); n=8
readout-label: % RELAXATION (%)

entry-smiles: C[C@@H]1O[C@@H](OC[C@H]2O[C@@H](Oc3c(-c4ccc(OCCO)c(OCCO)c4)oc4cc(OCCO)cc(O)c4c3=O)[C@H](O)[C@@H](O)[C@@H]2O)[C@H](O)[C@H](O)[C@H]1O
numeric-readout: 10
--
entry-smiles: COc1ccc(-c2cc(=O)c3c(O)cc(O[C@@H]4O[C@H](CO[C@@H]5O[C@@H](C)[C@H](O)[C@@H](O)[C@H]5O)[C@@H](O)[C@H](O)[C@H]4O)cc3o2)cc1O
numeric-readout: 10
--
entry-smiles: COc1ccc([C@@H]2CC(=O)c3c(O)cc(O[C@@H]4O[C@H](CO[C@@H]5O[C@@H](C)[C@H](O)[C@@H](O)[C@H]5O)[C@@H](O)[C@H](O)[C@H]4O)cc3O2)cc1O
numeric-readout: 9
--
entry-smiles: CCC(=O)O[C@H](CC(=O)[O-])C[N+](C)(C)C
numeric-readout: 28
--
entry-smiles: C[N+](C)(C)C[C@H](O)CC(=O)[O-]
numeric-readout: 25
